- Test system: STAT5 Y694 phosphorylation
- test-description: Protein electrophoresis and blotting of STAT5 Y694 phosphorylation in Jurkat cells stimulated with human interferon beta
- Assay type: cell-based
- test-settings: observed pSTAT5 bands at 10 μM and 100 μM
measured-parameter: Example of Effect 1: Inhibiting Ability (Protein Electrophoresis and Blotting)

O=c1c2ccc(-n3c(=O)[nH]c4ccccc43)cc2ccn1-c1ccc(C(F)(F)F)cc1
−
N#Cc1cccc2[nH]c(=O)n(C3CCN(C(=O)Cc4ccc5ncccc5c4)CC3)c12
+
O=C(Cn1c(=O)[nH]c2ccccc21)N1CCC(O)(c2ccc(C(F)(F)F)cc2)CC1
−
O=C(Nc1ccccn1)NC1CCN(C(=O)Cc2ccc(C(F)(F)F)cc2)CC1
−
O=c1[nH]c2ccccc2n1-c1ccn2c(=O)cc(Cc3ccc(F)cc3)cc2c1
+

QUERY: // lookup Example of Effect 1: Inhibiting Ability (Protein Electrophoresis and Blotting) for `O=C(Cc1ccc(C(F)(F)F)cc1)N1CCC(n2c(=O)[nH]c3ncccc32)CC1`
RESULT: +

QUERY: Another compound to check: `O=C(N1CCC(n2c(=O)[nH]c3cccc(C(F)(F)F)c32)CC1)C1(c2ccc(C(F)(F)F)cc2)CC1`
RESULT: +

QUERY: What would you report for `O=C(Cc1ccc(C(F)(F)F)cc1)N1CCC(n2c(=O)[nH]c3ccncc32)CC1` ?
RESULT: −

QUERY: Proceed to `O=C(Cc1ccc(C(F)(F)F)cc1)N1CCC(n2c(=O)[nH]c3cnccc32)CC1`
RESULT: +

QUERY: Try this compound next: `COc1ccc(CC(=O)N2CCC(n3c(=O)[nH]c4cccc(C(F)(F)F)c43)CC2)cc1OC`
RESULT: +

QUERY: Next compound up: `CC(C)(C(=O)N1CCC(n2c(=O)[nH]c3cccc(C(F)(F)F)c32)CC1)c1ccc(C(F)(F)F)cc1`
RESULT: −

QUERY: Moving on to the next compound: `N#Cc1cccc2[nH]c(=O)n(C3CCN(C(=O)Cc4ccc(C(F)(F)F)cc4)CC3)c12`
RESULT: +

QUERY: Thanks! And `O=C(Cc1ccc(C(F)(F)F)cc1)N[C@H]1C[C@@H](n2c(=O)[nH]c3ccccc32)C1` ?
RESULT: −

QUERY: Repeat with `O=C(Cc1ccc2ncccc2c1)N1CCC(n2c(=O)[nH]c3ccccc32)CC1`
RESULT: +

QUERY: Can you handle `CC(=O)Nc1ccccc1NC1CCN(C(=O)Cc2ccc(C(F)(F)F)cc2)CC1` next?
RESULT: ++

QUERY: Now this one: `O=C1CN(C2CCN(C(=O)Cc3ccc(C(F)(F)F)cc3)CC2)c2c(cccc2[N+](=O)[O-])N1`
RESULT: +

QUERY: And `COc1cccc2[nH]c(=O)n(C3CCN(C(=O)Cc4ccc(C(F)(F)F)cc4)CC3)c12` ?
RESULT: +

QUERY: How about this compound: `O=C(Cc1ccc(C(F)(F)F)cc1)N[C@H]1CC[C@H](n2c(=O)[nH]c3ccccc32)CC1`
RESULT: −

QUERY: // same read-out, input: `CC(C)(C)c1ccc(CC(=O)N2CCC(n3c(=O)[nH]c4ccccc43)CC2)cc1`
RESULT: +

QUERY: Can you check `O=C(Cc1ccc(C2CC2)cc1)N1CCC(n2c(=O)[nH]c3ccccc32)CC1` next?
RESULT: +
